Target sequence: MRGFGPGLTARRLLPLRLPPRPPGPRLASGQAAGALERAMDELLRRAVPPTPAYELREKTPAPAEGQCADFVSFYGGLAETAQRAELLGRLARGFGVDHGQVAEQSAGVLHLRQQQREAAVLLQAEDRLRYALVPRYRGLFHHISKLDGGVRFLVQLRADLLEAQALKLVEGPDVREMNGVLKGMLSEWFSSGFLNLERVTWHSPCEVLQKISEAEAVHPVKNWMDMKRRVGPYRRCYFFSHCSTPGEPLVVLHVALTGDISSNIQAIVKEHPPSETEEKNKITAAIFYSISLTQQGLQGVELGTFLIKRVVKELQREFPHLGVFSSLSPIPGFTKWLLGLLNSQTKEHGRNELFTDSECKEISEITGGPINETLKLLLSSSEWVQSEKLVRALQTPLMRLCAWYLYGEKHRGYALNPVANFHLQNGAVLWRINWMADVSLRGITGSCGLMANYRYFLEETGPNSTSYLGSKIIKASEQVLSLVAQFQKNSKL
pIC50: −log10 of the molar value.
Study the reported pIC50 values for the protein given by its sequence given below; they originate from different publications.

| COMPOUND | TGT | pIC50 |
| --- | --- | --- |
| CC(C)C(=O)N(CC1CCCO1)c1ncc(C(O)(C(F)(F)F)C(F)(F)F)s1 (stereo not drawn) | the protein given by its sequence | 5.80 |
| O=C(NCC1CCCCC1)c1ccc(C(=O)C(F)(F)F)cc1 | the protein given by its sequence | 5.64 |
| Cc1cc(C(O)(C(F)(F)F)C(F)(F)F)ccc1C(Cc1cc[n+]([O-])cc1)c1ccc(OC(F)F)c(OC(F)F)c1 (stereo not drawn) | the protein given by its sequence | 7.88 |
